Biological target: human fibroblast collagenase (Homo sapiens)
Sequence (P03956 100-469): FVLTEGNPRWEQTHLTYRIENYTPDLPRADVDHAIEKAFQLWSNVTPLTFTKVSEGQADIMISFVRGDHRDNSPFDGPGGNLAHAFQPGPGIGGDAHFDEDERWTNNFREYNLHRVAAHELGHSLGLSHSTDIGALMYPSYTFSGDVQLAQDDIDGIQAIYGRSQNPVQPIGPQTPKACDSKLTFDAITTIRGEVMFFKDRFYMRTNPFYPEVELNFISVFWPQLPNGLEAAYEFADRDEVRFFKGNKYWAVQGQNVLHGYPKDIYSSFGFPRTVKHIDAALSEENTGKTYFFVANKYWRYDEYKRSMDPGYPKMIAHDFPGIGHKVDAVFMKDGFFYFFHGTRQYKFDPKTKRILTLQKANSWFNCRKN
Assay: Inhibition of Human Fibroblast Collagenase (in vitro, H-Pro-Met-Ala-Leu-Trp-NHCH3 substrate, fluorescamine detection)
Conditions: trypsin-activated enzyme 25 nM; substrate 375 μM; pH 7.5; DMSO not exceeding 5%; 90 minutes; calculated from competitive inhibitor equation; read-out: IC50 (half-maximal inhibitory concentration), Inhibition of Human Fibroblast Collagenase
Would you kindly list IC50 for each of these compounds?
Kindly answer with a numeric value in nM, unit omitted.

[in] Which value of IC50 has been reported for CC(C)C[C@H](CC(=O)O)C(=O)N[C@@H](Cc1c[nH]c2ccccc12)C(=O)NCCSCCN1CCOCC1 [Example 3B] in the records?
[out] 4500

[in] Look up IC50 for this compound: CC(C)C[C@H](CC(=O)O)C(=O)N[C@@H](Cc1c[nH]c2ccccc12)C(=O)NCCSCCN(C)C [Example 2B]
[out] 8800

[in] Please give the measured IC50 for this compound: CC(C)C[C@H](CC(=O)NO)C(=O)N[C@@H](Cc1c[nH]c2ccccc12)C(=O)NCCSCCN(C)C [Example 2C]
[out] 20

[in] # IC50 lookup, item CC(C)C[C@H](CC(=O)NO)C(=O)N[C@@H](Cc1c[nH]c2ccccc12)C(=O)NCCSCCN1CCOCC1 [Example 3C]
[out] 15
